Known Human liver S9 remaining ratio of a selection of compounds
- test.method.notes: Metabolic stability test in liver S9 (Test Example [2])
- Assay type: in vitro ADME, human
- measurement.parameters: human liver S9 2 mg protein/mL, 37° C., 60 minutes of incubation vs 0 minute
Write down the numeric answer in % and omit the unit.

Cc1ccc(N2c3cccc(C(=O)Nc4ccc(C(F)(F)F)c(F)c4)c3OC[C@@H]2CO)nc1 ... 65.9

Check the records and state Human liver S9 remaining ratio for Cc1ccc(N2c3cccc(C(=O)Nc4cc(F)c(OCC(C)(C)O)c(F)c4)c3OC[C@@H]2CO)nc1
77.3

Check the records and state Human liver S9 remaining ratio for O=C(Nc1ccc(OCC(F)(F)F)c(Cl)c1)c1cccc2c1OCCN2c1ncc(CO)cc1Cl
92.5

---

- test.method.notes: In-vitro membrane permeability test (Test Example [3])
- Format: in vitro ADME
- measurement.parameters: human, Caco-2, Caco2 cells, apical to basolateral, 2 hours; read-out: membrane permeability in terms of the Papp values
- Experimental: 10 mM DMSO solution of the test compound was diluted with Hanks buffer (pH 6.5) to 25 μM to make a test compound solution. […] The test compound (uncharged) in the supernatant was measured using high-performance liquid chromatography/tandem mass spectrometry (LC/MS/MS: Quantum, Thermo Quest). A membrane permeability coefficient (Papp) was calculated according to the following equation: Papp(cm/sec.)=(dx/dt)/(A×C0) […]
Known Papp A→B at 2 h, 25 μM of a selection of molecules

// worked examples, Papp A→B at 2 h, 25 μM included
Cc1ccc(N2c3cccc(C(=O)Nc4cc(F)c(OCC(C)(C)O)c(F)c4)c3OC[C@@H]2CO)nc1 ... ≥ 30 ×10⁻⁶ cm/s
Cc1ccc(N2c3cccc(C(=O)Nc4ccc(OC(F)(F)F)c(Cl)c4)c3OC[C@@H]2CO)nc1 ... 6.7 ×10⁻⁶ cm/s
Cc1ccc(N2c3cccc(C(=O)Nc4cc(F)c(OC(C)(C)CO)c(F)c4)c3OC[C@@H]2CO)nc1 ... ≥ 30 ×10⁻⁶ cm/s

Check the records and state Papp A→B at 2 h, 25 μM for Cc1ccc(N2c3cccc(C(=O)Nc4ccc(OC(C)(C)C)nc4)c3OC[C@@H]2CO)nc1
≥ 30 ×10⁻⁶ cm/s

---

Known IC50 of a selection of molecules
- study.target: human VR1 (Homo sapiens)
- Sequence (Q8NER1 whole entry): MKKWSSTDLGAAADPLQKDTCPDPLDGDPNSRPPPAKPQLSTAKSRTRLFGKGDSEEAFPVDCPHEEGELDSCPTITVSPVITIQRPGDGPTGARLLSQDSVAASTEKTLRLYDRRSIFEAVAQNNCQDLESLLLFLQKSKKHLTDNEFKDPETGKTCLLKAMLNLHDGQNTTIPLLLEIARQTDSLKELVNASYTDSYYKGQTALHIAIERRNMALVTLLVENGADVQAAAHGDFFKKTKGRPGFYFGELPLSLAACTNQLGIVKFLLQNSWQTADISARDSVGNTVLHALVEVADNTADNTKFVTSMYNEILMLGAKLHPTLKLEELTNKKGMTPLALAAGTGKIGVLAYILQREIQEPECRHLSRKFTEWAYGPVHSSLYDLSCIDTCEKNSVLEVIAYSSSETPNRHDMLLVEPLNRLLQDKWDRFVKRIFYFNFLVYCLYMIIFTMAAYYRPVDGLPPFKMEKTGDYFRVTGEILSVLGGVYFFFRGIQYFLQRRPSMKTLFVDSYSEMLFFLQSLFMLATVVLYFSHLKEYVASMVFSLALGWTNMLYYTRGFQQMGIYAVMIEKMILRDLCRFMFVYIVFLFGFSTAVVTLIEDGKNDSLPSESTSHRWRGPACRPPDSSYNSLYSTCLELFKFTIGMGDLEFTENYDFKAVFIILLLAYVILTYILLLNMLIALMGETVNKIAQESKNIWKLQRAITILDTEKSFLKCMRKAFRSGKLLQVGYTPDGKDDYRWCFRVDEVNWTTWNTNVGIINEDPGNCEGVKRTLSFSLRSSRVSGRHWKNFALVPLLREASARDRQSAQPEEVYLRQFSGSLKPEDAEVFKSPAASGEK
- test.method.notes: Inhibition of Ca2+ entry in cells caused by proton (Test Example [1])
- measurement.parameters: rat glioma (C6BU1) cells stably expressing human VR1; proton stimulation, pH 5.7; Ca2+ uptake, Fura 2-AM; read-out: VRI Inhibition IC50
Write down the numeric answer in pM and omit the unit.

Cc1ccc(N2c3cccc(C(=O)Nc4cc(F)c(OC(C)(C)C)c(F)c4)c3OC[C@@H]2CO)nc1 ... 24
Cc1ccc(N2c3cccc(C(=O)Nc4ccc(OC(F)(F)F)cc4)c3OC[C@@H]2CO)nc1 ... 300
O=C(Nc1ccc(OC(F)(F)F)cc1)c1cccc2c1OCCN2c1ncc(CO)cc1Cl ... 3000
Cc1ccc(N2c3cccc(C(=O)Nc4cc(F)c(OCC(C)(C)O)c(F)c4)c3OC[C@@H]2CO)nc1 ... 540

Check the records and state IC50 for Cc1ccc(N2c3cccc(C(=O)Nc4ccc(OC(F)(F)F)c(Cl)c4)c3OC[C@@H]2CO)nc1
40

Check the records and state IC50 for Cc1ccc(N2c3cccc(C(=O)Nc4ccc(C(F)(F)F)cc4)c3OC[C@@H]2CO)nc1
400
